test: Stability in Hanks' balanced salt solution (HBSS); type: physicochemical; conditions: 37° C., relative to initial conc. in HBSS = 100.00
Readout label: Conc. after 4-hour in HBSS

INSERT INTO results (query_smiles, reported) VALUES
  ('CC[C@H](C)[C@H](NC(=O)[C@H](CO)NC(=O)[C@@H](NC(=O)[C@@H]1CCCN1C(=O)[C@H](C)NC(=O)[C@H](CC(N)=O)NC(=O)OCC(C)C)C(C)C)C(=O)N1CCC[C@H]1C(=O)N[C@@H](CCC(N)=O)C(=O)O', 100.02),
  ('CCCC(=O)N[C@@H](CC(N)=O)C(=O)N[C@@H](C)C(=O)N1CCC[C@H]1C(=O)N[C@H](C(=O)N[C@@H](CO)C(=O)N[C@H](C(=O)N1CCC[C@H]1C(=O)N[C@@H](CCC(N)=O)C(=O)O)[C@@H](C)CC)C(C)C', 97.76);
